Biological target: UniProt:P05067
Sequence (P05067 672-713): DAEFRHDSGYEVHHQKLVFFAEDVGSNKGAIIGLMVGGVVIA
Test: Th-T (thioflavin-T) assay of Aβ42 aggregation
Type: biochemical
Conditions: column suffix _50; reading M95
Labelling: Fig. 7a Th-T reading, mean of three wells reported below 0.5 becomes t; at or above becomes f.

Enquiry: Is Fig. 7a Th-T reading, mean of three wells of C=C1CCC2C(C)(CCC=C(C)C)C(O)CCC2(C)C1Cc1c(OC)oc(CO)c(C(=O)OC)c1=O (centres unmarked) [Compound 13] strictly below 0.5?
Return: t

Enquiry: Is Fig. 7a Th-T reading, mean of three wells of C=C1CC[C@@H]2[C@](C)(CC[C@H]3O[C@H](C=C(C)C)C[C@@]23C)[C@@H]1Cc1c(OC)oc(CO)c(C)c1=O [Compound 20] strictly below 0.5?
Return: f

Enquiry: Is Fig. 7a Th-T reading, mean of three wells of C=C1CCC2C(C)(CCC=C(C)C)C(O)CCC2(C)C1Cc1c(OC)oc(C)c(C(=O)OC)c1=O (centres unmarked) [Compound 14] strictly below 0.5?
Return: f

Enquiry: Is Fig. 7a Th-T reading, mean of three wells of C=C1CCC2C(C)(CCC=C(C)C)C(O)CCC2(C)C1Cc1c(OC)oc(CO)c(C)c1=O (centres unmarked) [Compound 12] strictly below 0.5?
Return: f

Enquiry: Is Fig. 7a Th-T reading, mean of three wells of C=C1CC[C@@H]2[C@](C)(CC[C@H]3O[C@H](C=C(C)C)C[C@@]23C)[C@@H]1Cc1c(OC)oc(CO)c(C(=O)OC)c1=O [Compound 21] strictly below 0.5?
Return: t

----------
Tested on: DL1 cells
Assay: cytotoxicity in Drosophila DL1 cells
Format: cell-based
Conditions: Drosophila melanogaster, DL1 cells, cytotoxicity, average±SEM; read-out: IC50
ENDPOINT LABEL: IC50 (nM)
Hi! Could you send only the number? It should be in nM, unit omitted.

Enquiry: Dear colleague, I am looking for the recorded IC50 of the following compound: C=C1CCC2C(C)(CCC=C(C)C)C(O)CCC2(C)C1Cc1c(OC)oc(C)c(C(=O)OC)c1=O (stereo not shown) [Compound 14]
Return: 440

Enquiry: Dear colleague, I am looking for the recorded IC50 of the following compound: C=C1CCC2C(C)(CC(=O)C=C(C)C)C(O)CCC2(C)C1Cc1c(O)c(C)c(C)oc1=O (stereo not shown) [Compound 7]
Return: 8750

Enquiry: Dear colleague, I am looking for the recorded IC50 of the following compound: C=C1CC[C@H]2[C@]3(C)C[C@H](C=C(C)C)O[C@H]3CC[C@]2(C)[C@@H]1Cc1c(O)c(C)c(C)oc1=O [Compound 6, subglutinol B]
Return: 230

Enquiry: Dear colleague, I am looking for the recorded IC50 of the following compound: C=C1CCC2C3(C)CC(C=C(C)C)OC3CCC2(C)C1Cc1c(OC)oc(C)c(C)c1=O (stereo not shown) [Compound 23]
Return: 130

----------
Exercise: state measured GI50 for each of the compounds provided.
Tested on: MDA-MB-231
Test: cells
Parameters: species or system JFCR39 human cancer cell lines; JFCR39 panel growth inhibition, sulforhodamine B total protein after 48 h
Details: Homo sapiens, MDA-MB-231, 48 h
Hi! Could you send only the number? It should be in µM, unit omitted.

Enquiry: Can you look up GI50 on MDA-MB-231 for C=C1CCC2C(C)(CC(=O)C=C(C)C)C(O)CCC2(C)C1Cc1c(O)c(C)c(C)oc1=O (stereo not drawn) ?
Return: 58.3

Enquiry: Can you look up GI50 on MDA-MB-231 for C=C1CCC2C(C)(CCC=C(C)C)C(O)CCC2(C)C1Cc1c(OC)oc(CO)c(C(=O)OC)c1=O (stereo not drawn) ?
Return: 19.6

Enquiry: Can you look up GI50 on MDA-MB-231 for C=C1CCC2C(C)(CCC=C(C)C)C(O)CCC2(C)C1Cc1c(OC)oc(C)c(C(=O)OC)c1=O (stereo not drawn) ?
Return: 13.2

Enquiry: Can you look up GI50 on MDA-MB-231 for C=C1CCC2C(C)(CCC=C(C)C)C(O)CCC2(C)C1Cc1c(OC)oc(C)c(C)c1=O (stereo not drawn) ?
Return: 22.6

Enquiry: Can you look up GI50 on MDA-MB-231 for C=C1CCC2C(C)(CCC=C(C)C)C(O)CCC2(C)C1Cc1c(OC)oc(CO)c(C)c1=O (stereo not drawn) ?
Return: 13.5

Enquiry: Can you look up GI50 on MDA-MB-231 for "C=C1CC[C@H]2[C@]3(C)C[C@@H](C=C(C)C)O[C@H]3CC[C@]2(C)[C@@H]1Cc1c(OC)oc(CO)c(C)c1=O" ?
Return: 13.9
